I'd be grateful if you could share measured Organ distribution of F-18 signal, stomach for these entries.
protocolDetails: Biodistribution: organ distribution of F-18 signal in mice
Format: in vivo, male NMRI mice
conditionParameters: stomach (without content), 60 min post i.v. injection
Answers are plain numbers, in % ID/g.

Guide cases for Organ distribution of F-18 signal, stomach, answers given:
[[record]]
compound = "O=C(NCC(=O)N1CCN(c2ccc(OCc3ccccc3)cc2)CC1)c1cccnc1[18F] [Example 12c]"
unitssymbol = "% ID/g"
val = 1.89

[[record]]
compound = "O=C(NCC(=O)N1CCN(c2ccc(OCc3ccccc3)cc2)CC1)c1ccnc([18F])c1 [Example 11c]"
unitssymbol = "% ID/g"
val = 1.13

[[record]]
compound = "O=C(NCC(=O)N1CCN(c2ccc(OCc3ccccc3)cc2)CC1)c1ccc([18F])nc1 [Example 10e]"
unitssymbol = "% ID/g"
val = 1.09


# return Organ distribution of F-18 signal, stomach for each item in the list
1. O=C(NCC(=O)N1CCN(c2ccc(OCc3ccccc3)cc2)CC1)c1cccc(OCC[18F])c1
2. O=C(NCC(=O)N1CCN(c2ccc(OCc3ccccc3)cn2)CC1)c1ccnc([18F])c1 [Example 14f]

Output:
[1.53, 2.07]

====

protocolDetails: Biodistribution: organ distribution of F-18 signal in mice
Type: in vivo, male NMRI mice
conditionParameters: testicle, 30 min post i.v. injection
Threshold rule: Organ distribution of F-18 signal, testicle greater than or equal to 1 % ID/g is 1.0; below that, 0.0.

Worked set:
[[record]]
compound = "O=C(NCC(=O)N1CCN(c2ccc(OCc3ccccc3)cc2)CC1)c1ccnc([18F])c1 [Example 11c]"
assignedclass = 1.0

[[record]]
compound = "O=C(NCC(=O)N1CCN(c2ccc(OCc3ccccc3)cc2)CC1)c1cccc(OCC[18F])c1 [Example 3g]"
assignedclass = 1.0

[[record]]
compound = "O=C(NCC(=O)N1CCN(c2ccc(OCc3ccccc3)cc2)CC1)c1ccc([18F])nc1 [Example 10e]"
assignedclass = 1.0


Input: Reported Organ distribution of F-18 signal, testicle reaches at least 1 % ID/g for O=C(NCC(=O)N1CCN(c2ccc(OCc3ccccc3)cc2)CC1)c1cccnc1[18F] [Example 12c] ?
Output: 1.0

Input: Identify whether the reported Organ distribution of F-18 signal, testicle of the following compound is 1 % ID/g or greater: O=C(NCC(=O)N1CCN(c2ccc(OCc3ccccc3)cn2)CC1)c1ccnc([18F])c1 [Example 14f]
Output: 0.0

====

protocolDetails: Biodistribution: organ distribution of F-18 signal in mice
Assay type: in vivo, male NMRI mice
conditionParameters: blood, 30 min post i.v. injection
metricName: Organ distribution of F-18 signal, blood (% ID/g)
Numbers only, in % ID/g.

Provide each entry's Organ distribution of F-18 signal, blood from the list below.
1. O=C(NCC(=O)N1CCN(c2ccc(OCc3ccccc3)cc2)CC1)c1cccnc1[18F] [Example 12c]
2. O=C(NCC(=O)N1CCN(c2ccc(OCc3ccccc3)cc2)CC1)c1ccnc([18F])c1 [Example 11c]
3. O=C(NCC(=O)N1CCN(c2ccc(OCc3ccccc3)cc2)CC1)c1ccc([18F])nc1 [Example 10e]
4. O=C(NCC(=O)N1CCN(c2ccc(OCc3ccccc3)cn2)CC1)c1ccnc([18F])c1 [Example 14f]
5. O=C(NCC(=O)N1CCN(c2ccc(OCc3ccccc3)cc2)CC1)c1cccc(OCC[18F])c1

Output:
1. 1.30
2. 1.13
3. 1.38
4. 1.30
5. 1.85

====

protocolDetails: Biodistribution: organ distribution of F-18 signal in mice
Format: in vivo, male NMRI mice
conditionParameters: fat, 240 min post i.v. injection
Give Organ distribution of F-18 signal, fat for every item shown.
Answers are plain numbers, in % ID/g.

Use these answered entries as a reference point.
[[record]]
molecule = "O=C(NCC(=O)N1CCN(c2ccc(OCc3ccccc3)cc2)CC1)c1ccnc([18F])c1 [Example 11c]"
metricname = "Organ distribution of F-18 signal, fat"
unitssymbol = "% ID/g"
val = 0.08

[[record]]
molecule = "O=C(NCC(=O)N1CCN(c2ccc(OCc3ccccc3)cc2)CC1)c1cccc(OCC[18F])c1"
metricname = "Organ distribution of F-18 signal, fat"
unitssymbol = "% ID/g"
val = 0.34

[[record]]
molecule = "O=C(NCC(=O)N1CCN(c2ccc(OCc3ccccc3)cc2)CC1)c1ccc([18F])nc1 [Example 10e]"
metricname = "Organ distribution of F-18 signal, fat"
unitssymbol = "% ID/g"
val = 0.15

[[record]]
molecule = "O=C(NCC(=O)N1CCN(c2ccc(OCc3ccccc3)cc2)CC1)c1cccnc1[18F] [Example 12c]"
metricname = "Organ distribution of F-18 signal, fat"
unitssymbol = "% ID/g"
val = 0.11


// moving on: another record for Organ distribution of F-18 signal, fat
Input: Answer with the recorded Organ distribution of F-18 signal, fat for the molecule listed here: O=C(NCC(=O)N1CCN(c2ccc(OCc3ccccc3)cn2)CC1)c1ccnc([18F])c1 [Example 14f]
Output: 0.02

====

protocolDetails: Biodistribution: organ distribution of F-18 signal in mice
Assay type: in vivo, male NMRI mice
conditionParameters: pancreas, 60 min post i.v. injection
Would you kindly list Organ distribution of F-18 signal, pancreas for each of these compounds?
Give bare numbers, in % ID/g.

Some solved entries appear below for comparison.
[[record]]
compound = "O=C(NCC(=O)N1CCN(c2ccc(OCc3ccccc3)cc2)CC1)c1cccnc1[18F] [Example 12c]"
val = 0.75

[[record]]
compound = "O=C(NCC(=O)N1CCN(c2ccc(OCc3ccccc3)cc2)CC1)c1ccc([18F])nc1 [Example 10e]"
val = 0.92

[[record]]
compound = "O=C(NCC(=O)N1CCN(c2ccc(OCc3ccccc3)cn2)CC1)c1ccnc([18F])c1 [Example 14f]"
val = 0.32

[[record]]
compound = "O=C(NCC(=O)N1CCN(c2ccc(OCc3ccccc3)cc2)CC1)c1ccnc([18F])c1 [Example 11c]"
val = 0.77


Alright, here's another compound for you.
Input: Retrieve Organ distribution of F-18 signal, pancreas measured for "O=C(NCC(=O)N1CCN(c2ccc(OCc3ccccc3)cc2)CC1)c1cccc(OCC[18F])c1" and print it.
Output: 1.22

====

protocolDetails: Biodistribution: organ distribution of F-18 signal in mice
Format: in vivo, male NMRI mice
conditionParameters: liver, 240 min post i.v. injection
Param threshold (2 % ID/g) applies to Organ distribution of F-18 signal, liver; output YES when value >= threshold, NO when value < threshold.

[[record]]
compound = "O=C(NCC(=O)N1CCN(c2ccc(OCc3ccccc3)cc2)CC1)c1cccc(OCC[18F])c1"
assignedclass = "NO"

[[record]]
compound = "O=C(NCC(=O)N1CCN(c2ccc(OCc3ccccc3)cn2)CC1)c1ccnc([18F])c1 [Example 14f]"
assignedclass = "NO"

[[record]]
compound = "O=C(NCC(=O)N1CCN(c2ccc(OCc3ccccc3)cc2)CC1)c1cccnc1[18F] [Example 12c]"
assignedclass = "YES"

[[record]]
compound = "O=C(NCC(=O)N1CCN(c2ccc(OCc3ccccc3)cc2)CC1)c1ccc([18F])nc1 [Example 10e]"
assignedclass = "YES"


Input: Is Organ distribution of F-18 signal, liver for O=C(NCC(=O)N1CCN(c2ccc(OCc3ccccc3)cc2)CC1)c1ccnc([18F])c1 [Example 11c] at or above 2 % ID/g?
Output: YES

====

protocolDetails: Biodistribution: organ distribution of F-18 signal in mice
Format: in vivo, male NMRI mice
conditionParameters: liver, 30 min post i.v. injection
Outcome: True for Organ distribution of F-18 signal, liver of at least 9 % ID/g; False for anything lower.

Some solved cases for reference:
[[record]]
molecule = "O=C(NCC(=O)N1CCN(c2ccc(OCc3ccccc3)cc2)CC1)c1cccnc1[18F] [Example 12c]"
assignedclass = "False"

[[record]]
molecule = "O=C(NCC(=O)N1CCN(c2ccc(OCc3ccccc3)cc2)CC1)c1ccnc([18F])c1 [Example 11c]"
assignedclass = "True"

[[record]]
molecule = "O=C(NCC(=O)N1CCN(c2ccc(OCc3ccccc3)cc2)CC1)c1ccc([18F])nc1 [Example 10e]"
assignedclass = "True"


Input: Dear colleague, could you confirm whether O=C(NCC(=O)N1CCN(c2ccc(OCc3ccccc3)cn2)CC1)c1ccnc([18F])c1 [Example 14f] has Organ distribution of F-18 signal, liver at or above 9 % ID/g?
Output: False

====

protocolDetails: Biodistribution: organ distribution of F-18 signal in mice
Format: in vivo, male NMRI mice
conditionParameters: pancreas, 240 min post i.v. injection
Please use 1 whenever Organ distribution of F-18 signal, pancreas is not below 0.2 % ID/g, and 0 whenever it is.

Please review the following examples before continuing.
[[record]]
compound = "O=C(NCC(=O)N1CCN(c2ccc(OCc3ccccc3)cn2)CC1)c1ccnc([18F])c1 [Example 14f]"
assignedclass = 0

[[record]]
compound = "O=C(NCC(=O)N1CCN(c2ccc(OCc3ccccc3)cc2)CC1)c1cccnc1[18F] [Example 12c]"
assignedclass = 0

[[record]]
compound = "O=C(NCC(=O)N1CCN(c2ccc(OCc3ccccc3)cc2)CC1)c1ccnc([18F])c1 [Example 11c]"
assignedclass = 0


Input: Decide: is the reported value of Organ distribution of F-18 signal, pancreas for O=C(NCC(=O)N1CCN(c2ccc(OCc3ccccc3)cc2)CC1)c1cccc(OCC[18F])c1 [Example 3g] equal to or greater than 0.2 % ID/g?
Output: 1

Input: Does O=C(NCC(=O)N1CCN(c2ccc(OCc3ccccc3)cc2)CC1)c1ccc([18F])nc1 [Example 10e] have a reported Organ distribution of F-18 signal, pancreas of at least 0.2 % ID/g?
Output: 1
